Test system: PRKCQ (human), Q04759 [P330L]
Sequence (Q04759 whole entry P330L, looked up): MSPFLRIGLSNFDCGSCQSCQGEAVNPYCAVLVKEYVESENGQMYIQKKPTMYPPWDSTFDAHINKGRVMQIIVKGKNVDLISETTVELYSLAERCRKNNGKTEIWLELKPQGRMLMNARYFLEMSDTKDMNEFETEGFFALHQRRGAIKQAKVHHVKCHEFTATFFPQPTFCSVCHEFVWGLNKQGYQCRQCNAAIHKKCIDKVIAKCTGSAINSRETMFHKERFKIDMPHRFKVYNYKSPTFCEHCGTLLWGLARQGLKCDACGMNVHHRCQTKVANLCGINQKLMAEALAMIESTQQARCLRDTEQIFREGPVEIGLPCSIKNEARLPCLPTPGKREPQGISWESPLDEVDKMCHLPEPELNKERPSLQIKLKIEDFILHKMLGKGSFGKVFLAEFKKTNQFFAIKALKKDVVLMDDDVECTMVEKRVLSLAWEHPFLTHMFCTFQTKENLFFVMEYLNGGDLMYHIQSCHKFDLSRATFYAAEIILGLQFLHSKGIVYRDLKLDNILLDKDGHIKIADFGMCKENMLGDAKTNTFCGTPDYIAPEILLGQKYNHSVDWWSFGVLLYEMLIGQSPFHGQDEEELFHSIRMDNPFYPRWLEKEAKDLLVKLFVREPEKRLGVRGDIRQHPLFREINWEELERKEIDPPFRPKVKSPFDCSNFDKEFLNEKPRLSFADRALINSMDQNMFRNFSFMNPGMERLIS
assay_text: radiometric filter-binding kinase assay, Kinase HotSpot
condition_label: compound 0.5 µM; ATP 10 µM

{"compound_structure_string": "COc1cc2ncnc(Nc3ccc(OCc4ccccc4)cc3)c2cc1OC", "target_desc": "PRKCQ (human), Q04759 [P330L]", "unit_of_measure": "%", "residual activity": 102}
{"compound_structure_string": "CN(C)c1ccc(/C=C2\\C(=O)Nc3ccccc32)cc1", "target_desc": "PRKCQ (human), Q04759 [P330L]", "unit_of_measure": "%", "residual activity": 104}
{"compound_structure_string": "COc1cc2ncnc(Nc3ccc(Oc4ccccc4)cc3)c2cc1OC", "target_desc": "PRKCQ (human), Q04759 [P330L]", "unit_of_measure": "%", "residual activity": 124}
{"compound_structure_string": "FC(F)(F)c1ccc(/C=C/c2nc(COc3ccc(CCCCn4ccnn4)cc3)co2)cc1", "target_desc": "PRKCQ (human), Q04759 [P330L]", "unit_of_measure": "%", "residual activity": 99.9}
{"compound_structure_string": "CCN(CC)CCCCN1c2ccccc2Oc2ccc(Cl)cc21", "target_desc": "PRKCQ (human), Q04759 [P330L]", "unit_of_measure": "%", "residual activity": 97.5}
{"compound_structure_string": "O=C1C(Cl)=C(N2C(=O)CCC2=O)C(=O)c2ccccc21", "target_desc": "PRKCQ (human), Q04759 [P330L]", "unit_of_measure": "%", "residual activity": 114}
{"compound_structure_string": "O=C1NC(=O)C(c2cn(CCCn3ccnc3)c3ccccc23)=C1Nc1ccccc1", "target_desc": "PRKCQ (human), Q04759 [P330L]", "unit_of_measure": "%", "residual activity": 37.2}
{"compound_structure_string": "c1ccc(-c2cnc(Nc3ccc(OCCN4CCCC4)cc3)s2)cc1", "target_desc": "PRKCQ (human), Q04759 [P330L]", "unit_of_measure": "%", "residual activity": 91.2}
{"compound_structure_string": "CC(C)(C)c1cc(C=C(C#N)C#N)cc(Br)c1O", "target_desc": "PRKCQ (human), Q04759 [P330L]", "unit_of_measure": "%", "residual activity": 98}
{"compound_structure_string": "O=C(Nc1ccc(Cl)cc1)c1ccccc1NCc1ccncc1", "target_desc": "PRKCQ (human), Q04759 [P330L]", "unit_of_measure": "%", "residual activity": 110}
{"compound_structure_string": "N#CC(C#N)=C(N)/C(C#N)=C/c1ccc(O)cc1", "target_desc": "PRKCQ (human), Q04759 [P330L]", "unit_of_measure": "%", "residual activity": 99.8}
{"compound_structure_string": "Cc1cc2ncc(-c3ccccc3)nc2cc1C", "target_desc": "PRKCQ (human), Q04759 [P330L]", "unit_of_measure": "%", "residual activity": 97}
{"compound_structure_string": "CC[n+]1c(/C=C/N(C)c2ccccc2)n(-c2ccccc2)c2ccc(-c3nc4ccccc4s3)cc21", "target_desc": "PRKCQ (human), Q04759 [P330L]", "unit_of_measure": "%", "residual activity": 94.6}
{"compound_structure_string": "CC(C)[C@H](CO)Nc1nc(Nc2cccc(Cl)c2)c2ncn(C(C)C)c2n1", "target_desc": "PRKCQ (human), Q04759 [P330L]", "unit_of_measure": "%", "residual activity": 127}
